Where do the numbers come from? From PubChem BioAssay (Tox21).

assay: qHTS assay to identify small molecule agonists of the sonic hedgehog signaling (Shh) pathway (AID 1259368); conditions: NIH/3T3 Gli1-Luc reporter, luciferase, 24 h; series mostly up to 92.4 µM;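 note: NIH/3T3-derived 3T3Gli1-Luc cells carrying a stable Gli1-driven firefly luciferase reporter; nearly all actives have a fitted effect of over 15% in size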
Calls of active or inactive are those of the source. Calls come from the whole dose curve.
Give one outcome, nothing more. List: YES (active), NO (inactive)

Use the examples below as a reference point.
CC1CC(OC(=O)C(O)c2ccccc2)CC(C)(C)N1C (centres undefined) = NO
CCC(C)(C)OC = NO
O=C(O)c1cccc(-c2noc(-c3ccccc3F)n2)c1 = NO
CN(C)CCC=C1c2ccccc2C=Cc2ccccc21 = NO
Nc1nnc(-c2ccc([N+](=O)[O-])o2)o1 = NO
Cc1ccc(OC(=O)c2ccccc2O)cc1 = NO
c1ccc2sc(SN(C3CCCCC3)C3CCCCC3)nc2c1 = NO
O=C1NCCN1CCO = NO

Dear all, I need the recorded test outcome for `CCOC(=O)/C=C/C(=O)OCC` , thank you.
NO

Dear all, I need the recorded test outcome for `C[C@@H](O)[C@H]1C(=O)N2C(C(=O)O)=C([C@H]3CCCO3)S[C@H]12` , thank you.
NO

* * *

experiment: qHTS assay to identify small molecule antagonists of the estrogen receptor alpha (ER-alpha) signaling pathway using the BG1 cell line - cell viability counter screen (AID 743081); settings: BG1Luc4E2 viability, CellTiter-Fluor, 22 h; series mostly up to 70.3 µM;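 note: compound given together with 17beta-estradiol as the ER stimulus; nearly all actives have a fitted effect of over 45% in size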
Records with an inconclusive call do not appear. Activity calls are given as the source filed them. The call rests on the fitted dose curve; in most records, active means well fitted cell-killing curve with a large enough effect in the repeat runs; inconclusive means weak or mixed curves, or effect the other way; inactive means flat fitted curve, though single readings scatter.
Give one outcome, nothing more. List: active, inactive

Dear all, I need the recorded test outcome for CC1(CN2CCC(n3c(=O)[nH]c4ccccc43)CC2)OCc2ccccc2-n2cccc21 (centres undefined) , thank you.
inactive

Dear all, I need the recorded test outcome for O=C(OCC(O)CO)c1ccccc1Nc1ccnc2cc(Cl)ccc12 (centres undefined) , thank you.
inactive

Dear all, I need the recorded test outcome for `O=c1cc(-c2ccccc2)oc2ccc3ccccc3c12` , thank you.
inactive

Dear all, I need the recorded test outcome for `O=C(/C=C/c1ccc(O)c(O)c1)O[C@@H]1C[C@@](OC(=O)/C=C/c2ccc(O)c(O)c2)(C(=O)O)C[C@@H](O)[C@@H]1O` , thank you.
inactive

Dear all, I need the recorded test outcome for `CCCCCCCC/C=C\CCCCCCCCCCCC(=O)O` , thank you.
inactive

* * *

test: qHTS assay to identify small molecule agonists of the progesterone receptor (PR) signaling pathway - cell viability counter screen (AID 1346799); conditions: PR-UAS-bla HEK293T viability, CellTiter-Glo luminescence, 16 h; series mostly up to 92.4 µM; note: nearly all actives have a fitted effect of over 45% in size
Inconclusive results are not listed. Calls of active or inactive are those of the source. Calls come from the whole dose curve.
assay endpoint: outcome

O=C1c2ccccc2C(=O)C1(O)O = inactive
N#[N+]c1ccc2c(S(=O)(=O)[O-])cccc2c1O = inactive
CC(=O)c1cc2ccccc2s1 = inactive
CCCCCCCCCCC(=O)O = inactive

Form: compound = `CCCCOc1ccc(OCCCN2CCOCC2)cc1` ; outcome = inactive

Form: compound = `CCN(CC)CCNC(=O)COc1ccc(OC)cc1` ; outcome = inactive

Form: compound = `CC[N+](CC)(CCNC(=O)C(=O)NCC[N+](CC)(CC)Cc1ccccc1Cl)Cc1ccccc1Cl` ; outcome = inactive

* * *

experiment: qHTS RealTime-Glo MT Cell Viability Assay in HEK293 cells - 8 hour (AID 1224887); conditions: RealTime-Glo luminescence; series mostly up to 76.8 µM; note: nearly all actives have a fitted effect of over 50% in size
Inconclusive results are not listed. The source made the active and inactive calls. The call rests on the fitted dose curve; in most records, active means well fitted cell-killing curve with a large enough effect in the repeat runs; inconclusive means weak or mixed curves, or effect the other way; inactive means flat fitted curve, though single readings scatter.
Give one outcome, nothing more. List: y (active), n (inactive)

C1C[C@@H]2[C@H]3CC[C@H](C3)[C@@H]2C1 = n
CCOC(=O)C1=C(C)NC(C)=C(C(=O)OC)C1c1cccc(Cl)c1Cl (stereo unspecified) = n
CCOc1ccc(Cc2nccc3cc(OCC)c(OCC)cc23)cc1OCC = y
CC(C)=CCC/C(C)=C/CC/C(C)=C/CCC(=O)OC/C=C(\C)CCC=C(C)C = n

Dear all, I need the recorded test outcome for `O=C(Cn1ccnc1[N+](=O)[O-])NCCO` , thank you.
n

Dear all, I need the recorded test outcome for `CC(=O)N/N=C/c1ccc([N+](=O)[O-])o1` , thank you.
n

Dear all, I need the recorded test outcome for CCOC(=O)OC(C)OC(=O)[C@@H]1N2C(=O)[C@@H](NC(=O)[C@H](N)c3ccccc3)[C@H]2SC1(C)C (stereo partly specified) , thank you.
n

Dear all, I need the recorded test outcome for `CC[C@]1(O)C[C@H]2CN(CCc3c([nH]c4ccccc34)[C@@](C(=O)OC)(c3cc4c(cc3OC)N(C=O)[C@H]3[C@@](O)(C(=O)OC)[C@H](OC(C)=O)[C@]5(CC)C=CCN6CC[C@]43[C@@H]65)C2)C1` , thank you.
n

Dear all, I need the recorded test outcome for `CC1=C(CC=O)C(C)(C)CCC1` , thank you.
n
